- System: Jar
- assay-overview: Confirmatory qHTS for gynecologic anti-cancer compounds from libraries of approved drugs and bioactive compounds; further: nearly all actives have a fitted effect of over 55% in size
- experimental-parameters: gynecologic cancer cell panel viability, ATPlite luminescence, 48 h; series mostly up to 57.6 µM
Inconclusive results are not listed. The source made the active and inactive calls. The call rests on the fitted dose curve; in most records, active means well fitted cell-killing curve with a large enough effect; inconclusive means small, poorly fitted or top-dose-only effect, or effect the other way; inactive means no such curve, though single readings can be large or run the other way.
Bench note: report the call from 1 for active, -1 for inactive

compound="C1CCC(C(CC2CCCCN2)C2CCCCC2)CC1 (stereo not given)" test_system=Jar qualitative_label=1
compound="CN(C)CCC(CSc1ccccc1)Nc1ccc(S(=O)(=O)NC(=O)c2ccc(N3CCN(Cc4ccccc4-c4ccc(Cl)cc4)CC3)cc2)cc1[N+](=O)[O-] (stereo not given)" test_system=Jar qualitative_label=1
compound=CN1CCN(Cc2ccc(NC(=O)Nc3ccc(Oc4cc(NC(=O)C5CC5)ncn4)cc3)cc2C(F)(F)F)CC1 test_system=Jar qualitative_label=1
compound=Nc1ccccc1NC(=O)c1ccc(CNc2nccc(-c3cccnc3)n2)cc1 test_system=Jar qualitative_label=1

# lookup: test call for `COCCOc1ccc2c(c1)ncn2-c1ccc2cccc(N3CCC(N)CC3)c2n1`
-1
